Attribution: patent US20050152896A1

Target: T1, murine galanin (mature, processed form) (murine, UniProt P47212 33-61, not fully specified)
T1 construct: mature
T1 peptide (looked up): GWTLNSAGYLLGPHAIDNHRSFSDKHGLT
Assay: epitope mapping
reported_metric: binding result

Given the binder murine monoclonal antibody 5B4 (antibody, mouse IgG2a, V domains shown, purified from ascites; also called hybridoma 5B4C1 (ATCC PTA-5651)) VH: EVQLQQSGAELVRPGALVKLSCKASGFNIEDYYMHWVRQRPEEGLEWIGRIDPENGNTIYDPKFQGKASITADTSSNTAYLQLSSLTSEDTAVYYCVRGYVDWGQGTLVTVSA VL: DVLMTQTPLSLPVSLGDQASISCRSSQSIVHSDGDTYLEWYLQKAGQSPKLLIYKVSNRFSGVPDRFSGSGSGTDFTLKISRVEAEDLGLYYCFQGSHVPYTFGGGTKLEIKR , what is its reported binding result?
binds
